Where do the numbers come from? From ChEMBL document CHEMBL2069221.

# GI values compiled below
system: Candida albicans; assay: Antifungal activity against Candida albicans after 48 hrs by microbroth dilution method; type: functional
observed.property: GI (µg/mL)

INSERT INTO assay_data (compound, unit_abbrev, comparator, result_number) VALUES
  ('Cc1cc(NC(=S)NC(=O)c2c(F)cccc2F)c(C(C)C)cc1O', 'µg/mL', '=', 64),
  ('Cc1cc(NC(=S)NC(=O)c2ccc(F)cc2)c(C(C)C)cc1O', 'µg/mL', '=', 64),
  ('Cc1cc(NC(=O)NC(=O)c2ccc(Cl)cc2)c(C(C)C)cc1O', 'µg/mL', '=', 32),
  ('O=C(NC(=O)c1c(F)cccc1F)Nc1cc(Cl)c(OC(F)(F)C(F)C(F)(F)F)cc1Cl (stereo not given)', 'µg/mL', '>', 512),
  ('Cc1cc(NC(=S)NC(=O)c2ccc(Cl)cc2)c(C(C)C)cc1O', 'µg/mL', '=', 16);

---

experiment: Toxicity in RBC assessed as induction of hemolysis at 1000 ug/ml; assay type: cell-based, Erythrocyte; conditions: red blood cells (RBC); read-out: Activity
observed.property: hemolysis at 1000 ug/ml (%)

INSERT INTO measurements (molecule, result_number) VALUES
  ('Cc1cc(NC(=S)NC(=O)c2ccc(F)cc2)c(C(C)C)cc1O', 17);

---

test system: Candida albicans; assay: Antifungal activity against Candida albicans NCIM 3471 after 48 hrs by microbroth dilution method; format: functional
# GI values compiled below
observed.property: GI

INSERT INTO assay_data (compound, system_under_test, result) VALUES
  ('Cc1cc(NC(=S)NC(=O)c2ccccc2F)c(C(C)C)cc1O', 'Candida albicans', '>512 µg/mL'),
  ('O=C(NC(=O)c1c(F)cccc1F)Nc1cc(Cl)c(OC(F)(F)C(F)C(F)(F)F)cc1Cl (centres undefined)', 'Candida albicans', '>512 µg/mL'),
  ('Cc1ccc(C(C)C)cc1O', 'Candida albicans', '256 µg/mL'),
  ('Cc1cc(NC(=O)NC(=O)c2ccc(Cl)cc2)c(C(C)C)cc1O', 'Candida albicans', '>512 µg/mL'),
  ('Cc1cc(NC(=O)NC(=O)c2ccccc2F)c(C(C)C)cc1O', 'Candida albicans', '32 µg/mL'),
  ('Cc1cc(NC(=O)NC(=O)c2c(F)cccc2F)c(C(C)C)cc1O', 'Candida albicans', '32 µg/mL'),
  ('Cc1cc(NC(=S)NC(=O)c2ccc(Cl)cc2)c(C(C)C)cc1O', 'Candida albicans', '32 µg/mL'),
  ('Cc1cc(NC(=O)NC(=O)c2ccc(F)cc2)c(C(C)C)cc1O', 'Candida albicans', '32 µg/mL'),
  ('Cc1cc(NC(=S)NC(=O)c2ccccc2Cl)c(C(C)C)cc1O', 'Candida albicans', '>512 µg/mL'),
  ('Cc1cc(NC(=S)NC(=O)c2ccc(F)cc2)c(C(C)C)cc1O', 'Candida albicans', '>512 µg/mL'),
  ('Cc1cc(NC(=O)NC(=O)c2ccccc2Cl)c(C(C)C)cc1O', 'Candida albicans', '>512 µg/mL'),
  ('Cc1cc(NC(=S)NC(=O)c2ccccc2)c(C(C)C)cc1O', 'Candida albicans', '>512 µg/mL'),
  ('Cc1cc(NC(=O)NC(=O)c2ccccc2)c(C(C)C)cc1O', 'Candida albicans', '>512 µg/mL'),
  ('Cc1cc(NC(=S)NC(=O)c2c(F)cccc2F)c(C(C)C)cc1O', 'Candida albicans', '>512 µg/mL');

---

# hemolysis values compiled below
experiment: Toxicity in RBC assessed as induction of hemolysis at MIC; type: cell-based, Erythrocyte; settings: red blood cells (RBC); read-out: Activity
observed.property: hemolysis

INSERT INTO assay_data (molecule, result) VALUES
  ('Cc1cc(NC(=O)NC(=O)c2ccccc2F)c(C(C)C)cc1O', '< 2%'),
  ('Cc1cc(NC(=S)NC(=O)c2c(F)cccc2F)c(C(C)C)cc1O', '< 2%'),
  ('Cc1cc(NC(=S)NC(=O)c2ccccc2)c(C(C)C)cc1O', '< 2%'),
  ('Cc1cc(NC(=S)NC(=O)c2ccccc2Cl)c(C(C)C)cc1O', '< 2%'),
  ('Cc1cc(NC(=O)NC(=O)c2ccccc2)c(C(C)C)cc1O', '< 2%'),
  ('Cc1cc(NC(=S)NC(=O)c2ccccc2F)c(C(C)C)cc1O', '< 2%'),
  ('Cc1cc(NC(=S)NC(=O)c2ccc(Cl)cc2)c(C(C)C)cc1O', '< 2%'),
  ('Cc1cc(NC(=O)NC(=O)c2ccc(F)cc2)c(C(C)C)cc1O', '< 2%'),
  ('Cc1cc(NC(=O)NC(=O)c2ccc(Cl)cc2)c(C(C)C)cc1O', '< 2%'),
  ('Cc1cc(NC(=O)NC(=O)c2ccccc2Cl)c(C(C)C)cc1O', '< 2%'),
  ('Cc1cc(NC(=O)NC(=O)c2c(F)cccc2F)c(C(C)C)cc1O', '< 2%');

---

# GI values compiled below
tested on: Nakaseomyces glabratus; assay: Antifungal activity against Candida glabrata NCIM 3237 after 48 hrs by microbroth dilution method; type: functional
observed.property: GI (µg/mL)

INSERT INTO measurements (molecule, unit_abbrev, comparator, result_number) VALUES
  ('Cc1ccc(C(C)C)cc1O [CARVACROL]', 'µg/mL', '=', 128),
  ('Cc1cc(NC(=S)NC(=O)c2ccc(F)cc2)c(C(C)C)cc1O', 'µg/mL', '=', 64),
  ('Cc1cc(NC(=O)NC(=O)c2ccc(F)cc2)c(C(C)C)cc1O', 'µg/mL', '=', 16),
  ('Cc1cc(NC(=S)NC(=O)c2ccc(Cl)cc2)c(C(C)C)cc1O', 'µg/mL', '=', 32),
  ('Cc1cc(NC(=O)NC(=O)c2ccccc2F)c(C(C)C)cc1O', 'µg/mL', '=', 16),
  ('Cc1cc(NC(=O)NC(=O)c2ccccc2Cl)c(C(C)C)cc1O', 'µg/mL', '>', 512),
  ('Cc1cc(NC(=S)NC(=O)c2ccccc2F)c(C(C)C)cc1O', 'µg/mL', '=', 128),
  ('Cc1cc(NC(=S)NC(=O)c2c(F)cccc2F)c(C(C)C)cc1O', 'µg/mL', '=', 64),
  ('Cc1cc(NC(=O)NC(=O)c2ccccc2)c(C(C)C)cc1O', 'µg/mL', '>', 512),
  ('Cc1cc(NC(=S)NC(=O)c2ccccc2Cl)c(C(C)C)cc1O', 'µg/mL', '=', 64),
  ('O=C(NC(=O)c1c(F)cccc1F)Nc1cc(Cl)c(OC(F)(F)C(F)C(F)(F)F)cc1Cl (centres undefined) [LUFENURON]', 'µg/mL', '>', 512),
  ('Cc1cc(NC(=S)NC(=O)c2ccccc2)c(C(C)C)cc1O', 'µg/mL', '=', 32),
  ('Cc1cc(NC(=O)NC(=O)c2c(F)cccc2F)c(C(C)C)cc1O', 'µg/mL', '=', 16),
  ('Cc1cc(NC(=O)NC(=O)c2ccc(Cl)cc2)c(C(C)C)cc1O', 'µg/mL', '=', 32);

---

tested on: Candida albicans; test: Antifungal activity against Candida albicans NCIM 3557 after 48 hrs by microbroth dilution method; format: functional
observed.property: GI (µg/mL)

INSERT INTO results (molecule, observed_property, result_number) VALUES
  ('Cc1cc(NC(=S)NC(=O)c2ccccc2)c(C(C)C)cc1O', 'GI', 128),
  ('Cc1cc(NC(=O)NC(=O)c2ccccc2)c(C(C)C)cc1O', 'GI', 512),
  ('Cc1cc(NC(=S)NC(=O)c2ccccc2Cl)c(C(C)C)cc1O', 'GI', 64);

---

# MIC values compiled below
tested on: Fusarium oxysporum; experiment: Antifungal activity against Fusarium oxysporum after 48 hrs by microbroth dilution method; type: functional
observed.property: MIC (µg/mL)

INSERT INTO results (compound, observed_property, comparator, result_number) VALUES
  ('O=C(NC(=O)c1c(F)cccc1F)Nc1cc(Cl)c(OC(F)(F)C(F)C(F)(F)F)cc1Cl (stereo not drawn) [LUFENURON]', 'MIC', '>', 512),
  ('Cc1cc(NC(=S)NC(=O)c2ccc(Cl)cc2)c(C(C)C)cc1O', 'MIC', '=', 128),
  ('Cc1cc(NC(=S)NC(=O)c2ccccc2F)c(C(C)C)cc1O', 'MIC', '=', 128);

---

system: Drechslera; assay: Antifungal activity against Dreschlera oryzae after 48 hrs by microbroth dilution method; assay type: functional
# MIC values compiled below
observed.property: MIC

INSERT INTO results (compound, result) VALUES
  ('Cc1cc(NC(=S)NC(=O)c2ccccc2Cl)c(C(C)C)cc1O', '> 512 µg/mL'),
  ('Cc1cc(NC(=S)NC(=O)c2ccccc2)c(C(C)C)cc1O', '> 512 µg/mL'),
  ('Cc1cc(NC(=S)NC(=O)c2ccc(F)cc2)c(C(C)C)cc1O', '256 µg/mL'),
  ('O=C(NC(=O)c1c(F)cccc1F)Nc1cc(Cl)c(OC(F)(F)C(F)C(F)(F)F)cc1Cl (centres undefined)', '> 512 µg/mL'),
  ('Cc1cc(NC(=S)NC(=O)c2ccccc2F)c(C(C)C)cc1O', '> 512 µg/mL'),
  ('Cc1cc(NC(=S)NC(=O)c2ccc(Cl)cc2)c(C(C)C)cc1O', '> 512 µg/mL'),
  ('Cc1cc(NC(=O)NC(=O)c2ccc(Cl)cc2)c(C(C)C)cc1O', '128 µg/mL'),
  ('Cc1cc(NC(=O)NC(=O)c2c(F)cccc2F)c(C(C)C)cc1O', '> 512 µg/mL'),
  ('Cc1cc(NC(=O)NC(=O)c2ccccc2)c(C(C)C)cc1O', '> 512 µg/mL'),
  ('Cc1cc(NC(=O)NC(=O)c2ccccc2F)c(C(C)C)cc1O', '> 512 µg/mL'),
  ('Cc1cc(NC(=S)NC(=O)c2c(F)cccc2F)c(C(C)C)cc1O', '256 µg/mL'),
  ('Cc1cc(NC(=O)NC(=O)c2ccc(F)cc2)c(C(C)C)cc1O', '> 512 µg/mL'),
  ('Cc1cc(NC(=O)NC(=O)c2ccccc2Cl)c(C(C)C)cc1O', '256 µg/mL'),
  ('Cc1ccc(C(C)C)cc1O', '64 µg/mL');
